Recorded pIC50, one value per entry.
biological target: EGFR exon 20 ASV Ins V769_D770 (Ba/F3 cells) (Homo sapiens, UniProt P00533, INS769ASV); construct: expressed in transfected cells; host or cells: Ba/F3 (murine pro-B cells), retroviral transduction, puromycin selection, IL3-independent pool; experiment: Inhibitor activity on EGFR-dependent cell growth (CellTiter-Glo, 72 h), Ba/F3 EGFR exon 20 ASV Ins; assay type: cell-based; details: read-out: BaF3 ASV IC50
Sequence (P00533 with tags, fused parts or gaps INS769ASV): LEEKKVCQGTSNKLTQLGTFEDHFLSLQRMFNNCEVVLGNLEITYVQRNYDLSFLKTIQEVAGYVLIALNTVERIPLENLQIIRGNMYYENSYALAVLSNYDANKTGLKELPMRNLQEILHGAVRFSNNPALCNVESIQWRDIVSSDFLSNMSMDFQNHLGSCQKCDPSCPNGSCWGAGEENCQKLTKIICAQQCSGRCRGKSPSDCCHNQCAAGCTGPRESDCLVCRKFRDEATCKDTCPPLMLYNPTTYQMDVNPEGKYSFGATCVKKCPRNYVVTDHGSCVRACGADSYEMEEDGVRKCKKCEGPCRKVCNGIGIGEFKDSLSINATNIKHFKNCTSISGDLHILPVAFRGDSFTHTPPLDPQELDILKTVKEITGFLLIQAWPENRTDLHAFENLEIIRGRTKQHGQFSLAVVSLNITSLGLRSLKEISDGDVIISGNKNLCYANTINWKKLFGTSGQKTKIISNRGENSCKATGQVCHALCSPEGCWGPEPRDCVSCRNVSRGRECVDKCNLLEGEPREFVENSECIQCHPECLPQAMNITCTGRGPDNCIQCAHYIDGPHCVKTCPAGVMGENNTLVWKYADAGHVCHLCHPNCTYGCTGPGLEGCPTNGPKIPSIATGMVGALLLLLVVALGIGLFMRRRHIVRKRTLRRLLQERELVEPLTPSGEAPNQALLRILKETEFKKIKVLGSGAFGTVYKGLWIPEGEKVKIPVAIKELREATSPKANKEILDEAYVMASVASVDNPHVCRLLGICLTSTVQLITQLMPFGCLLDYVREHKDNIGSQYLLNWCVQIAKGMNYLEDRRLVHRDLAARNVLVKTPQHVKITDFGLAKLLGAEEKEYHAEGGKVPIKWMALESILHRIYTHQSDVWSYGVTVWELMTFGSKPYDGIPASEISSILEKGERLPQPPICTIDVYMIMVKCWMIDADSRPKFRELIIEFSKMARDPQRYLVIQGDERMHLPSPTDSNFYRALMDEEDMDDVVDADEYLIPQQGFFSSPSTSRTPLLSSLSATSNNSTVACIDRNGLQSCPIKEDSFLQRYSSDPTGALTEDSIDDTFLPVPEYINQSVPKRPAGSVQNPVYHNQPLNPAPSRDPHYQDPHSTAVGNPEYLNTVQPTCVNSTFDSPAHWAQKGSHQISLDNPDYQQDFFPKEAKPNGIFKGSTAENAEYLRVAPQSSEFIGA
pIC50: −log10 of the molar value.

{"molecule": "COc1c(Cl)cccc1Nc1c(-c2ccnc3ccc(O[C@H]4CCOC4)nc23)[nH]c2c1C(=O)NCC2", "pIC50": "> 7.00"}
{"molecule": "COc1c(Cl)cccc1Nc1c(-c2ccnc(N)n2)[nH]c2c1C(=O)NC(CO)C2 (stereo not drawn)", "pIC50": "6.00 to 7.00"}
{"molecule": "COc1c(Cl)cccc1Nc1c(-c2ccnc(Nc3nnn(C)c3C)n2)[nH]c2c1C(=O)NCC2", "pIC50": "< 6.00"}
{"molecule": "C=CC(=O)N1CCC2(CC1)CNC(=O)c1c2[nH]c(-c2ccncc2F)c1Nc1cccc(F)c1SC", "pIC50": "> 7.00"}
{"molecule": "COc1c(Cl)cccc1Nc1c(-c2ccnc(NC[C@@H]3CCO3)n2)[nH]c2c1C(=O)NCC2", "pIC50": "6.00 to 7.00"}
{"molecule": "COc1c(Cl)cccc1Nc1c(-c2ccnc3ccc(OC4CCOCC4)nc23)[nH]c2c1C(=O)NCC2", "pIC50": "> 7.00"}
{"molecule": "COc1c(Cl)cccc1Nc1c(-c2ccncc2F)[nH]c2c1C(=O)NC[C@@H]2CCN(C)C", "pIC50": "< 6.00"}
{"molecule": "COc1ncc2nccc(-c3[nH]c4c(c3Nc3cccc(Cl)c3OC)C(=O)NCC4)c2n1", "pIC50": "> 7.00"}
{"molecule": "COc1c(Cl)cccc1Nc1c(-c2ccnc(NC[C@H]3CCCO3)n2)[nH]c2c1C(=O)NCC2", "pIC50": "< 6.00"}
{"molecule": "COc1c(Cl)cccc1Nc1c(-c2ccncc2F)[nH]c2c1C(=O)NC[C@H]2CC1COC1 [468b]", "pIC50": "6.00 to 7.00"}
{"molecule": "COc1c(F)cccc1Nc1c(-c2ccnc(Nc3cnnn3C)n2)[nH]c2c1C(=O)NCC2", "pIC50": "> 7.00"}
{"molecule": "COc1cccc(Nc2c(-c3ccnc(N)n3)[nH]c3c2C(=O)NCC3)c1C", "pIC50": "< 6.00"}
{"molecule": "COc1ncc2nccc(-c3[nH]c4c(c3Nc3cccc(F)c3OC)C(=O)NCC4)c2n1", "pIC50": "> 7.00"}
{"molecule": "COc1c(Cl)cccc1Nc1c(-c2ccnc3ccc(OCC4COC4)nc23)[nH]c2c1C(=O)NCC2", "pIC50": "> 7.00"}
{"molecule": "CSc1c(F)cccc1Nc1c(-c2ccnc(N)n2)[nH]c2c1C(=O)NCC2", "pIC50": "6.00 to 7.00"}
{"molecule": "COc1ncc2nccc(-c3[nH]c4c(c3Nc3cccc(Cl)c3OC)C(=O)N[C@@H](C(F)(F)F)C4)c2n1", "pIC50": "> 7.00"}
{"molecule": "COc1c(Cl)cccc1Nc1c(-c2ccncc2F)[nH]c2c1C(=O)NC[C@@]21CCN(C(C)=O)C1", "pIC50": "< 6.00"}
{"molecule": "CNc1nccc(-c2[nH]c3c(c2Nc2cccc(Cl)c2OC)C(=O)NCC3)n1", "pIC50": "> 7.00"}
{"molecule": "COc1c(Cl)cccc1Nc1c(-c2ccnc(NC3CC(F)(F)C3)n2)[nH]c2c1C(=O)NCC2", "pIC50": "< 6.00"}
{"molecule": "COc1c(Cl)cccc1Nc1c(-c2ccnc3cccnc23)[nH]c2c1C(=O)NCC2", "pIC50": "> 7.00"}
{"molecule": "COCC[C@@H]1CNC(=O)c2c1[nH]c(-c1ccnc(C)n1)c2Nc1cccc(F)c1OC [453a]", "pIC50": "6.00 to 7.00"}
{"molecule": "COc1c(Cl)cccc1Nc1c(-c2ccnc3ccc(OC4CC4)nc23)[nH]c2c1C(=O)NC[C@@H]2C", "pIC50": "> 7.00"}
{"molecule": "CC#CC(=O)N1CCC2(CC1)CNC(=O)c1c2[nH]c(-c2ccncc2F)c1Nc1cccc(Cl)c1OC", "pIC50": "< 6.00"}
{"molecule": "COc1c(F)cccc1Nc1c(-c2ccncc2F)[nH]c2c1C(=O)NC[C@H]2C[C@@H]1CCO1 [Compound 422a]", "pIC50": "> 7.00"}
{"molecule": "COc1ccc2nccc(-c3[nH]c4c(c3Nc3cccc(Cl)c3OC)C(=O)NCC4)c2n1", "pIC50": "> 7.00"}
{"molecule": "COc1c(Cl)cccc1Nc1c(-c2ccnc(Nc3cn(C)nn3)n2)[nH]c2c1C(=O)NCC2", "pIC50": "> 7.00"}
{"molecule": "COc1cc2nccc(-c3[nH]c4c(c3Nc3cccc(F)c3OC)C(=O)NCC4)c2nc1OC", "pIC50": "> 7.00"}
{"molecule": "COc1c(F)cccc1Nc1c(-c2ccnc(C)n2)[nH]c2c1C(=O)NCC2C[C@@H]1COCCO1 (single isomer, unassigned) [Compound 604]", "pIC50": "> 7.00"}
{"molecule": "COc1c(Cl)cccc1Nc1c(-c2ccnc3ccc(C)nc23)[nH]c2c1C(=O)NCC2", "pIC50": "> 7.00"}
{"molecule": "C=CC(=O)N1CCC2(CC1)CNC(=O)c1c2[nH]c(-c2ccnc3ccc(OC)nc23)c1Nc1cccc(F)c1OC", "pIC50": "> 7.00"}

* * *

target: EGFR exon 20 ASV Ins V769_D770 (Ba/F3 cells) (Homo sapiens, UniProt P00533, INS769ASV); construct: expressed in transfected cells; host or cells: Ba/F3 (murine pro-B cells), retroviral transduction, puromycin selection, IL3-independent pool; assay: Inhibitor activity on EGFR-dependent cell growth (CellTiter-Glo, 72 h), Ba/F3 EGFR exon 20 ASV Ins; type: cell-based; conditions: read-out: BaF3 ASV IC50
observation type: IC50

{"entry smiles": "COc1c(Cl)cccc1Nc1c(-c2ccncc2F)[nH]c2c1C(=O)NC[C@@H]2C[C@@H]1CN(C)CCO1", "observation type": "IC50", "test value": "< 100 nM"}
{"entry smiles": "CC#Cc1cccc(Nc2c(-c3ccnc(N)n3)[nH]c3c2C(=O)NCC3)c1OC", "observation type": "IC50", "test value": "> 1000 nM"}
{"entry smiles": "COc1c(Cl)cccc1Nc1c(-c2ccnc3ccc(OCC4CC4)nc23)[nH]c2c1C(=O)NCC2", "observation type": "IC50", "test value": "< 100 nM"}
{"entry smiles": "COc1c(Cl)cccc1Nc1c(-c2ccnc3ccc(O[C@@H]4CCOC4)nc23)[nH]c2c1C(=O)NCC2", "observation type": "IC50", "test value": "< 100 nM"}
{"entry smiles": "COc1ncc2nccc(-c3[nH]c4c(c3Nc3cccc(Cl)c3F)C(=O)NCC4)c2n1", "observation type": "IC50", "test value": "< 100 nM"}
{"entry smiles": "COCC[C@@H]1CNC(=O)c2c1[nH]c(-c1ccncc1F)c2Nc1cccc(F)c1OC(F)F", "observation type": "IC50", "test value": "< 100 nM"}
{"entry smiles": "COc1c(F)cccc1Nc1c(-c2ccnc(N)c2)[nH]c2c1C(=O)NCC2", "observation type": "IC50", "test value": "> 1000 nM"}
{"entry smiles": "COc1c(F)cccc1Nc1c(-c2ccnc3ccc(OC4(C)COC4)nc23)[nH]c2c1C(=O)NCC2", "observation type": "IC50", "test value": "< 100 nM"}

* * *

molecular target: EGFR exon 20 NPG Ins D770_N771 (Ba/F3 cells) (Homo sapiens, UniProt P00533, INS770NPG); construct: expressed in transfected cells; host or cells: Ba/F3 (murine pro-B cells), retroviral transduction, puromycin selection, IL3-independent pool; experiment: Inhibitor activity on EGFR-dependent cell growth (CellTiter-Glo, 72 h), Ba/F3 EGFR exon 20 NPG Ins; format: cell-based; details: read-out: BaF3 NPG IC50
Sequence (P00533 with tags, fused parts or gaps INS770NPG): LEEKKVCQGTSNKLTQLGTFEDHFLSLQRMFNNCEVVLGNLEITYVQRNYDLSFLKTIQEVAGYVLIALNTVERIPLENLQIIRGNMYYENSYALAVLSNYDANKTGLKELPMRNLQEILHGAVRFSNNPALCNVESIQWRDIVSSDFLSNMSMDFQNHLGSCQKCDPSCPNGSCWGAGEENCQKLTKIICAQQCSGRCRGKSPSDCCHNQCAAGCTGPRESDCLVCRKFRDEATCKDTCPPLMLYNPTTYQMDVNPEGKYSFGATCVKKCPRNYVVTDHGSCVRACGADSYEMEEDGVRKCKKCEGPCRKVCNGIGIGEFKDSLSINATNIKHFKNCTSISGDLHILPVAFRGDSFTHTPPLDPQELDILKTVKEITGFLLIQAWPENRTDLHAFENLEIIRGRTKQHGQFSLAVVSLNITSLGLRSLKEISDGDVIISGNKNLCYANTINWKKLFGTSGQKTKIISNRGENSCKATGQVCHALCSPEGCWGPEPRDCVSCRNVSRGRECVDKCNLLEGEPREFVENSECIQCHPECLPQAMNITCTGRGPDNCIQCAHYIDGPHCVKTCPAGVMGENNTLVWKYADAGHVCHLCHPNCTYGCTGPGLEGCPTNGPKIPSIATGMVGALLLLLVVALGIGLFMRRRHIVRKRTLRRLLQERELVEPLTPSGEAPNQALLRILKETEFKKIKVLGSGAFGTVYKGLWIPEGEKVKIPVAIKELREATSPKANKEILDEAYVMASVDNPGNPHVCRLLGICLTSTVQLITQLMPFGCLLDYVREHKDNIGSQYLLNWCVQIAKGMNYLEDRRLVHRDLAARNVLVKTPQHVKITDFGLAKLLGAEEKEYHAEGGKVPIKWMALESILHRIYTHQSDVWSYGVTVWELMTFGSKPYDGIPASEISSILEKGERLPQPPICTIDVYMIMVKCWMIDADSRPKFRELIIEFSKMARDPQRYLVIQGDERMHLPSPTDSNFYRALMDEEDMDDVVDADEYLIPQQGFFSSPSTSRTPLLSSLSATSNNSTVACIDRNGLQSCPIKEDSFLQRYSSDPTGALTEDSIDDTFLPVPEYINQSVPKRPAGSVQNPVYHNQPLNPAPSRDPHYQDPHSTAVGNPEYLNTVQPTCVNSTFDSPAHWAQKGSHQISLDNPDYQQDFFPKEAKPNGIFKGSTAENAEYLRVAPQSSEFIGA
Recorded IC50, one value per entry.
observation type: IC50

{"entry smiles": "COCc1ccc2nccc(-c3[nH]c4c(c3Nc3cccc(Cl)c3OC)C(=O)NCC4)c2n1", "target": "EGFR exon 20 NPG Ins D770_N771 (Ba/F3 cells) (Homo sapiens, UniProt P00533, INS770NPG)", "observation type": "IC50", "test value": "< 0.1 µM"}
{"entry smiles": "COc1c(Cl)cccc1Nc1c(-c2ccnc(-c3cnn(C)n3)n2)[nH]c2c1C(=O)NCC2", "target": "EGFR exon 20 NPG Ins D770_N771 (Ba/F3 cells) (Homo sapiens, UniProt P00533, INS770NPG)", "observation type": "IC50", "test value": "< 0.1 µM"}
{"entry smiles": "CNC(=O)N1CC[C@]2(CNC(=O)c3c2[nH]c(-c2ccncc2F)c3Nc2cccc(Cl)c2OC)C1", "target": "EGFR exon 20 NPG Ins D770_N771 (Ba/F3 cells) (Homo sapiens, UniProt P00533, INS770NPG)", "observation type": "IC50", "test value": "> 1 µM"}
{"entry smiles": "CCO[C@@H](C)c1ccc2nccc(-c3[nH]c4c(c3Nc3cccc(Cl)c3OC)C(=O)NCC4)c2n1", "target": "EGFR exon 20 NPG Ins D770_N771 (Ba/F3 cells) (Homo sapiens, UniProt P00533, INS770NPG)", "observation type": "IC50", "test value": "< 0.1 µM"}
{"entry smiles": "COc1c(Cl)cccc1Nc1c(-c2ccnc3[nH]ccc23)[nH]c2c1C(=O)NCC2", "target": "EGFR exon 20 NPG Ins D770_N771 (Ba/F3 cells) (Homo sapiens, UniProt P00533, INS770NPG)", "observation type": "IC50", "test value": "> 1 µM"}
{"entry smiles": "COc1c(Cl)cccc1Nc1c(-c2ccncc2F)[nH]c2c1C(=O)NC[C@@H]2C[C@H]1COCCO1", "target": "EGFR exon 20 NPG Ins D770_N771 (Ba/F3 cells) (Homo sapiens, UniProt P00533, INS770NPG)", "observation type": "IC50", "test value": "< 0.1 µM"}
{"entry smiles": "COc1c(Cl)cccc1Nc1c(-c2ccnc(NCCF)n2)[nH]c2c1C(=O)NCC2", "target": "EGFR exon 20 NPG Ins D770_N771 (Ba/F3 cells) (Homo sapiens, UniProt P00533, INS770NPG)", "observation type": "IC50", "test value": "0.1 to 1 µM"}
